Assignment: determine reported Kd for the given binders.
TARGET_UNDER_TEST: T1, GPIIb/IIIa (SEQ ID NOs: 23 and 24) (human, UniProt P08514 32-994; P05106 27-716)
T1 construct: also called GPIIb/IIIa complex
ASSAY_PROCEDURE: Bio-Layer Interferometry (OctetRed), monovalent format, yeast-purified Fab; apparent monovalent affinity
Report as a plain number; the unit nM is understood.

Recorded Kd of affinity matured h34D10 Fab VH116/VL0 (Fab, V domains shown, Yeast-purified Fab) VH: EVQLVESGGGLVKPGGSLRLSCAASGFTFSAYAMSWVRQAPGKGLVWVASISSGGTTYYPDSVKRQFTISRDDAKNTLYLQMNSLRAEDTAVYYCTRGGDYGYALDYWGQGTLVTVSS VL: EIVMTQSPATLSVSPGERATLSCRASSSVNYMYWYQQKPGQAPRLLIYYTSNLAPGIPARFSGSGSGTEFTLTISSLQSEDFAVYYCQQFSSSPWTFGQGTKVEIK , please.
130

Repeat with affinity matured h34D10 Fab VH111/VL0 (Fab, V domains shown, Yeast-purified Fab) VH: EVQLVESGGGLVKPGGSLRLSCAASGFTFNAYAMSWVRQAPGEGLVWVASISSGGTTYYPDSVKRQFTISRDNAKNTLYLQMNSLRAEDTAVYYCTRGGDYGYALDYWGQGTLVTVSS VL: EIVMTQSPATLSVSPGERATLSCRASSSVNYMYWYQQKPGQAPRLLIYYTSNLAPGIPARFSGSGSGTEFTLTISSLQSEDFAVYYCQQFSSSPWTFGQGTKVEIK
150

Repeat with affinity matured h34D10 Fab VH104/VL0 (Fab, V domains shown, Yeast-purified Fab) VH: EVQLVESGGGLVKPGGSLRLSCAASGFTFSAYAMSWVRQAPGKGLVWVASISSGGTTYYPDSVKRQFTISRDNAKNTLYLQMNSLRAEDTAVYYCTRGGDYSYALDYWGRGTLVTVSS VL: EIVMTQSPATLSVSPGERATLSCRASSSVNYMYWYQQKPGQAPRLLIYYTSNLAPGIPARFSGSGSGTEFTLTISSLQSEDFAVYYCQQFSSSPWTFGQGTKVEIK
31

Repeat with affinity matured h34D10 Fab VH119/VL0 (Fab, V domains shown, Yeast-purified Fab) VH: GVQLVESGGGLVKPGGSLRLSCAASGFTFSAYAMSWVRQAPGKGLVWVASISSGGTTYYPDSVKRQFTISRDNAKNTLYLQMNSLRAEDTAVYYCTRGGDYGYALDYWGQGTLVTVSS VL: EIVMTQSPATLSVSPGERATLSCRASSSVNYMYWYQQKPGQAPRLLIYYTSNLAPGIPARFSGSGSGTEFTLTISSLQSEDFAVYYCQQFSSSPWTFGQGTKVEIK
140

Repeat with affinity matured h34D10 Fab VH117/VL0 (Fab, V domains shown, Yeast-purified Fab) VH: EAQLVESGGGLVKPGGSLRLSCAASGFTFSAYAMSWVRQAPGKGLVWVASISSGGTTYYPDSVKRQFTISRDNAKNTLYLQMNSLRAEDTAVYYCTRGGDYGYALDYWGQGTLVTVSS VL: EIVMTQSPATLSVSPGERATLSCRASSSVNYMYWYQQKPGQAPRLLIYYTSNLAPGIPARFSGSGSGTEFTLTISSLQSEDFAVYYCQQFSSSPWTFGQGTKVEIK
160

Repeat with affinity matured h34D10 Fab VH120/VL0 (Fab, V domains shown, Yeast-purified Fab) VH: EVQLVESGGGLVEPGGSLRLSCAASGFTFSAYAMSWVRQAPGKGLVWVASISSGGTTYYPDSVKRQFTISRDNAKNTLYLQMNSLRAEDTAVYYCTRGGDYGYALDYWGQGTLVTVSS VL: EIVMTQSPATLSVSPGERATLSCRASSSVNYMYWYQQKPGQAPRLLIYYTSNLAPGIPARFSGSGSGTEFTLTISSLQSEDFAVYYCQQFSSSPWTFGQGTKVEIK
240

Repeat with affinity matured h34D10 Fab VH112/VL0 (Fab, V domains shown, Yeast-purified Fab) VH: EVQLVESGGGLVKPGGSLRLSCAASGFTFSAYAMSWVRQAPGEGLVWVAGISSGGTTYYPDSVKRQFTISRDNAKNTLYLQMNSLRAEDTAVYYCTRGGDYGYALDYWGQGTLVTVSS VL: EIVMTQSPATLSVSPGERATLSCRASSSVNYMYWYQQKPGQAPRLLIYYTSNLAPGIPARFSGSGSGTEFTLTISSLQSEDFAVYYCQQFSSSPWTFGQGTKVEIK
160

Repeat with affinity matured h34D10 Fab VH105/VL0 (Fab, V domains shown, Yeast-purified Fab) VH: EVQLVESGGGLVKPGGSLRLSCAASGFTFSAYAMSWVRQAPGKGLVWVASISSGGTTYYPDSVKRQFTISRDNAKNTLYLQMNSLRAEDTAVYYCTRGGDYSYALDYWGQGTLVTVSS VL: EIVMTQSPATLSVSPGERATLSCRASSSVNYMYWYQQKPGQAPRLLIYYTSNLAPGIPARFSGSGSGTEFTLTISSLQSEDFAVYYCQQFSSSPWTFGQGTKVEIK
42

Repeat with affinity matured h34D10 Fab VH101/VL0 (Fab, V domains shown, Yeast-purified Fab) VH: EVQLVESGGGLVKPGGSLRLSCAASGFTFSAYAMSWVRQAPGKGLVWVASISSGGTTYYPDSVERQFTISRDNAKNTLYLQMNSLRAEDTAVYYCTRGGDYSYALDYWGQGTLVTVSS VL: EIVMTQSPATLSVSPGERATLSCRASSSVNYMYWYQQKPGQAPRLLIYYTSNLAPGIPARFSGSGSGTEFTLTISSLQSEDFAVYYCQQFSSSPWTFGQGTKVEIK
25

Repeat with affinity matured h34D10 Fab VH110/VL0 (Fab, V domains shown, Yeast-purified Fab) VH: EVQLVESGGGLVKPGGSLRLSCAASGFTFNAYAMSWVRQAPGKGLVWVASISSGGTTYYPDSVKRQFTISRDNAKNTLYLQMNSLRAEDTAVYYCTRGGDYGYALDYWGQGTLVTVSS VL: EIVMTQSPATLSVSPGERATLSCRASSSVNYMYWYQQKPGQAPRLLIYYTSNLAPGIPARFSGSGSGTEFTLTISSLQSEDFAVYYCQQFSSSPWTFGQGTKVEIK
130
